Catalogue of compounds with associated TGI
- Test system: CAKI-1 renal
- testProtocol: NCI tumour cell line growth inhibition, 48 h

[
  {
    "compound": "CCCCNC(=O)Cn1c2ccc(Br)cc2c2nc3ccccc3nc21",
    "TGI": "> 100 µM"
  },
  {
    "compound": "N#Cc1cccc(N2C(=O)C3C4C=CC(C3C2=O)C2C(=O)N(c3cccc(C#N)c3)C(=O)C42)c1 (stereo unspecified)",
    "TGI": "> 87 µM"
  },
  {
    "compound": "CC1c2[nH]c3ccccc3c2CCN1O (stereo unspecified)",
    "TGI": "> 100 µM"
  },
  {
    "compound": "COc1cc2nccc(Oc3ccc(NC(=O)c4cn(C(C)C)c(=O)n(-c5ccc(F)cc5)c4=O)cc3F)c2cc1OC",
    "TGI": "6 µM"
  },
  {
    "compound": "CCOC(=O)/C=C/CCC(C)(C)COC(C)=O",
    "TGI": "> 10 µM"
  },
  {
    "compound": "CC(=O)/C(=N\\Nc1ccc(Cl)cc1)C(C)=Nc1ccc(C)cc1",
    "TGI": "> 100 µM"
  },
  {
    "compound": "N#CCCN(CCC#N)c1ccc(C(N=Nc2ccccc2)=Nc2ccc(F)cc2)cc1",
    "TGI": "> 100 µM"
  },
  {
    "compound": "CN(C)CCCNc1nc2ccccc2c2[nH]c3ccccc3c12",
    "TGI": "3.01 µM"
  },
  {
    "compound": "CC1(C)C=C(/C=C2/N(S(=O)(=O)C(F)(F)F)C(/C=C3/N(S(=O)(=O)C(F)(F)F)C(C)(C#N)CC3(C)C)=CC2(C)C)N=C1/C=C1/CC(C)(C)C(=O)N1 (stereo unspecified)",
    "TGI": "> 100 µM"
  },
  {
    "compound": "CCCn1cc2c3c(cccc31)C1C=C(C)CN(C)C1C2 (stereo unspecified)",
    "TGI": "44.2 µM"
  },
  {
    "compound": "CSc1nc(=O)c2nc(-c3cccs3)c(-c3cccs3)nc2n1C",
    "TGI": "> 100 µM"
  },
  {
    "compound": "CCn1c(-c2nonc2N)nc2c(N3CCCC3)nccc21",
    "TGI": "> 25 µM"
  },
  {
    "compound": "CC1(C)CCC[C@]2(C)c3ccccc3C(=O)CC12 (stereo partly specified)",
    "TGI": "> 100 µM"
  },
  {
    "compound": "CN(C)CCNCCCNc1c2ccccc2nc2cccc([N+](=O)[O-])c12",
    "TGI": "0.331 µM"
  },
  {
    "compound": "O=C1NC2C(O)CCCCC2C12CCCCC2 (stereo unspecified)",
    "TGI": "> 100 µM"
  },
  {
    "compound": "CCOC(=O)/C=C/c1cccc(F)c1",
    "TGI": "> 100 µM"
  }
]

###

- Test system: OVCAR-4 ovarian
- testProtocol: NCI tumour cell line growth inhibition, 48 h
Catalogue of compounds with associated GI50
quantityName: GI50

[
  {
    "compound": "COc1ccc2[nH]c(C(=O)OCc3ccc4c(Cl)cc(Cl)c(O)c4n3)cc2c1",
    "assaySystem": "OVCAR-4 ovarian",
    "result": "1.49 µM"
  },
  {
    "compound": "Nc1cccc2c1C(=O)c1cccc(NC(=O)c3ccccc3)c1C2=O",
    "assaySystem": "OVCAR-4 ovarian",
    "result": "5.07 µM"
  },
  {
    "compound": "CNC(=O)c1cncc(/C=C/c2ccccc2Cl)c1",
    "assaySystem": "OVCAR-4 ovarian",
    "result": "> 25 µM"
  },
  {
    "compound": "CC/C(=C/c1ccc(OC)cc1OC)[N+](=O)[O-]",
    "assaySystem": "OVCAR-4 ovarian",
    "result": "4.66 µM"
  },
  {
    "compound": "CO/N=C(\\COc1ccc2oc(-c3ccccc3)cc(=O)c2c1)c1ccc(F)cc1",
    "assaySystem": "OVCAR-4 ovarian",
    "result": "22.3 µM"
  },
  {
    "compound": "O=C1NC(c2ccccc2)C2(C(=O)O)CN(C3CC3)c3cc(N4CCNCC4)c(F)cc3C2N1 (centres undefined)",
    "assaySystem": "OVCAR-4 ovarian",
    "result": "> 100 µM"
  },
  {
    "compound": "CS(=O)(=O)N(c1cc(-c2ccc3ncnc(Nc4ccc(F)c(Cl)c4)c3c2)cnc1Cl)S(C)(=O)=O",
    "assaySystem": "OVCAR-4 ovarian",
    "result": "2.33 µM"
  },
  {
    "compound": "CC[C@H](C)[C@H](NC(=O)c1cccn1C)C(=O)N(C)[C@H](C[C@@H](OC(C)=O)c1nc(C(=O)N[C@@H](Cc2ccccc2)C[C@H](C)C(=O)OC)cs1)C(C)C",
    "assaySystem": "OVCAR-4 ovarian",
    "result": "0.68 µM"
  },
  {
    "compound": "CC(C)c1ccc(NC(=O)Cc2ccc(Nc3ncnc4cc(-c5cnn(CCN(C)C)c5)ccc34)cc2)cc1",
    "assaySystem": "OVCAR-4 ovarian",
    "result": "1.51 µM"
  }
]
